# PROTOCOL SUMMARY: in vitro
# CONDITION PARAMETERS: human, 20% fecal homogenate (supernatant), anaerobic, pH 6.8
Bridge positions count the residues as written; N and C are the ends. Square brackets hold non-standard residues; d marks the D form. Peptide text beside a SMILES is read from it. Trp(7-Me) = Cc1cccc2c(C[C@H](N)C(=O)O)c[nH]c12; 2Nal = N[C@@H](Cc1ccc2ccccc2c1)C(=O)O; Pen = CC(C)(S)[C@H](N)C(=O)O; αMeK = C[C@](N)(CCCCN)C(=O)O
Reported half-life at 20 μM by item:
RECORDED ENDPOINT: half-life at 20 μM

CC(=O)NCCCC[C@@H]1NC(=O)[C@H](Cc2c[nH]c3c(C)cccc23)NC(=O)[C@H]([C@@H](C)O)NC(=O)[C@H](CC(N)=O)NC(=O)[C@@H](NC(C)=O)C(C)(C)SSC(C)(C)[C@@H](C(=O)N[C@@H](Cc2c[nH]cn2)C(=O)N[C@@H](Cc2ccc3ccccc3c2)C(=O)N[C@@](C)(CCCCN)C(=O)N[C@@H](CCCCNC(C)=O)C(=O)N[C@@H](CC(N)=O)C(=O)N[C@H](CC(C)C)C(N)=O)NC1=O [compound 290] (Ac-[Pen]NT[Trp(7-Me)]K(Ac)[Pen]H[2Nal][αMeK]K(Ac)N[dL]-NH2; disulfide 1-6) ... > 24 h
CC(=O)NCCCC[C@H](NC(=O)[C@](C)(CCCCN)NC(=O)[C@H](Cc1ccc2ccccc2c1)NC(=O)[C@H](Cc1ccc(OCCN)cc1)NC(=O)[C@H]1NC(=O)[C@H](CCC(N)=O)NC(=O)[C@H](Cc2c[nH]c3cc(C)ccc23)NC(=O)[C@H]([C@@H](C)O)NC(=O)[C@H](CC(N)=O)NC(=O)[C@@H](NC(C)=O)C(C)(C)SSC1(C)C)C(=O)N[C@@H](CC(N)=O)C(=O)NCCC(N)=O ... > 24 h
CC(=O)NCCCC[C@H](NC(=O)[C@](C)(CCCCN)NC(=O)[C@H](Cc1ccc2ccccc2c1)NC(=O)[C@H](Cc1ccc(OCCN)cc1)NC(=O)[C@H]1NC(=O)[C@H](CCC(N)=O)NC(=O)[C@H](Cc2c(C(C)(C)C)[nH]c3c(C(C)(C)C)cc(C(C)(C)C)cc23)NC(=O)[C@H]([C@@H](C)O)NC(=O)[C@H](CC(N)=O)NC(=O)[C@@H](NC(C)=O)C(C)(C)SSC1(C)C)C(=O)N[C@@H](CC(N)=O)C(=O)NCCC(N)=O ... > 24 h

====

# MEASURED TARGET: IL-23R (Homo sapiens, UniProt Q5VWK5)
# Sequence (Q5VWK5 24-629): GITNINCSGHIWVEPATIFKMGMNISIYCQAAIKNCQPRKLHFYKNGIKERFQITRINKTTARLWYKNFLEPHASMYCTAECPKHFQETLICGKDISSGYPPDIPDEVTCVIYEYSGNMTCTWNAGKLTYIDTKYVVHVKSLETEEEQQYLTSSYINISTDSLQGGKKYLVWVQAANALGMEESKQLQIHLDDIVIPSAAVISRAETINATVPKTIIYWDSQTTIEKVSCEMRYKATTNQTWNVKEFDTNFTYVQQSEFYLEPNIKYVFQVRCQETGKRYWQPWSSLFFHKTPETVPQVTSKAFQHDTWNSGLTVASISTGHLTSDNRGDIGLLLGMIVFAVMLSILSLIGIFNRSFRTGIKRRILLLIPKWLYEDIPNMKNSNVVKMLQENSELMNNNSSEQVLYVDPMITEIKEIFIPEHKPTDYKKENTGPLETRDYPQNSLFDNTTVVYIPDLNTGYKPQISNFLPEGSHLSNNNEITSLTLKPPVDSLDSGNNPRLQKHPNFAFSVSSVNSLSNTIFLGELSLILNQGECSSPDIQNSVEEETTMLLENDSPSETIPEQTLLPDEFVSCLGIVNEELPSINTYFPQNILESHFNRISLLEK
# PROTOCOL SUMMARY: DB cells IL23R pSTAT3 cell assay (pStat3 HTRF)
# Format: cell-based
# CONDITION PARAMETERS: Table E3; DB cells, IL-23 0.5 nM, 30 minutes at 37° C.; read-out: pStat3 HTRF (IC50)
RECORDED ENDPOINT: IC50

CC(=O)NCCCC[C@@H]1NC(=O)[C@H](Cc2c[nH]c3c(C)cccc23)NC(=O)[C@H]([C@@H](C)O)NC(=O)[C@H](CC(N)=O)NC(=O)[C@@H](NC(C)=O)C(C)(C)SSC(C)(C)[C@@H](C(=O)N[C@@H](Cc2ccc(OCCN)cc2)C(=O)N[C@@H](Cc2ccc3ccccc3c2)C(=O)N[C@@](C)(CCCCN)C(=O)N[C@@H](CCCCNC(C)=O)C(=O)N[C@@H](CC(N)=O)C(=O)N[C@@H](C(N)=O)C(C)C)NC1=O [compound 251] ... < 1 nM
CC(=O)NCCCC[C@H](NC(=O)[C@](C)(CCCCN)NC(=O)[C@H](Cc1ccc2ccccc2c1)NC(=O)[C@H](Cc1ccc(OCCN)cc1)NC(=O)[C@H]1NC(=O)[C@H](CCC(N)=O)NC(=O)[C@H](Cc2c[nH]c3cc(C)ccc23)NC(=O)[C@H]([C@@H](C)O)NC(=O)[C@H](CC(N)=O)NC(=O)[C@@H](NC(C)=O)C(C)(C)SSC1(C)C)C(=O)N[C@@H](CC(N)=O)C(=O)NCCC(N)=O [compound 230] ... 10 to 100 nM
CC(=O)NCCCC[C@H](NC(=O)[C@](C)(CCCCN)NC(=O)[C@H](Cc1ccc2ccccc2c1)NC(=O)[C@H](Cc1ccc(OCCN)cc1)NC(=O)[C@H]1NC(=O)[C@H](CCCCNC(=O)C2CCCCC2)NC(=O)[C@H](Cc2c[nH]c3c(C)cccc23)NC(=O)[C@H]([C@@H](C)O)NC(=O)[C@H](CC(N)=O)NC(=O)[C@@H](NC(C)=O)C(C)(C)SSC1(C)C)C(=O)N[C@@H](CC(N)=O)C(=O)N[C@H](CC(C)C)C(N)=O [compound 316] ... 1 to 10 nM
CC(=O)NCCCC[C@H](NC(=O)[C@](C)(CCCCN)NC(=O)[C@H](Cc1ccc2ccccc2c1)NC(=O)[C@H](Cc1ccc(OCCN)cc1)NC(=O)[C@H]1NC(=O)[C@H](CCCCNC(=O)CC(C)C)NC(=O)[C@H](Cc2c[nH]c3c(C)cccc23)NC(=O)[C@H]([C@@H](C)O)NC(=O)[C@H](CC(N)=O)NC(=O)[C@@H](NC(C)=O)C(C)(C)SSC1(C)C)C(=O)N[C@@H](CC(N)=O)C(=O)N[C@H](CC(C)C)C(N)=O [compound 315] ... 1 to 10 nM
CC(=O)NCCCC[C@H](NC(=O)[C@](C)(CCCCN)NC(=O)[C@H](Cc1ccc2ccccc2c1)NC(=O)[C@H](Cc1ccc(OCCN)cc1)NC(=O)[C@H]1NC(=O)[C@H](CCCCNC(=O)CC(F)(F)F)NC(=O)[C@H](Cc2c[nH]c3c(C)cccc23)NC(=O)[C@H]([C@@H](C)O)NC(=O)[C@H](CC(N)=O)NC(=O)[C@@H](NC(C)=O)C(C)(C)SSC1(C)C)C(=O)N[C@@H](CC(N)=O)C(=O)N[C@H](CC(C)C)C(N)=O [compound 319] ... < 1 nM
CC[C@H](C)[C@H](NC(=O)[C@H](CC(N)=O)NC(=O)[C@H](CCCCNC(C)=O)NC(=O)[C@](C)(CCCCN)NC(=O)[C@H](Cc1ccc2ccccc2c1)NC(=O)[C@H](Cc1ccc(OCCN)cc1)NC(=O)[C@H]1NC(=O)[C@H](CCCCNC(C)=O)NC(=O)[C@H](Cc2c[nH]c3c(C)cccc23)NC(=O)[C@H]([C@@H](C)O)NC(=O)[C@H](CC(N)=O)NC(=O)[C@@H](NC(C)=O)C(C)(C)SSC1(C)C)C(N)=O [compound 255] ... 1 to 10 nM
